Quick reference: Kd of the listed items.
- Experimental system: Galectin-9 (Homo sapiens, UniProt O00182)
- Sequence (O00182 whole entry): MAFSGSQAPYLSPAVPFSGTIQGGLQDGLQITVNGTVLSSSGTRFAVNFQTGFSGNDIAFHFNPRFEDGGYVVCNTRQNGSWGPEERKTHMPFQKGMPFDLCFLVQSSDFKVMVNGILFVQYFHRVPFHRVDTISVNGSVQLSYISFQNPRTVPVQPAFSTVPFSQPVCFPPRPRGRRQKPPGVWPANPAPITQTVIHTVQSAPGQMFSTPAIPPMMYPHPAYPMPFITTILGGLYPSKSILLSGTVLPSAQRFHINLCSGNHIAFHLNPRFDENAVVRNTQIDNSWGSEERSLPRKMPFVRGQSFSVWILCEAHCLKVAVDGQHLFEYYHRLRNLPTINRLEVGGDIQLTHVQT
Output spec: scalar in µM, unitless text.

Recorded Kd, per entry:
Enquiry: Enter reported Kd observed with Galectin-9 (Homo sapiens, UniProt O00182) for CO[C@@H]1O[C@H](CO)[C@@H](O[C@@H]2O[C@H](CO)[C@H](O)[C@H](NC(=S)NCCO)[C@H]2O)[C@H](O)[C@H]1NC(C)=O
Return: 120

Enquiry: Lab request: please report Kd under test system Galectin-9 (Homo sapiens, UniProt O00182) for CO[C@@H]1O[C@H](CO)[C@@H](O[C@@H]2O[C@H](CO)[C@H](O)[C@H](NC(N)=S)[C@H]2O)[C@H](O)[C@H]1NC(C)=O
Return: 76

Enquiry: Param readout = Kd; param system = Galectin-9 (Homo sapiens, UniProt O00182); param query = C=CCNC(=S)N[C@H]1[C@@H](O)[C@@H](CO)O[C@@H](O[C@H]2[C@H](O)[C@@H](NC(C)=O)[C@H](OC)O[C@@H]2CO)[C@@H]1O ; response: value
Return: 97

Now consider the entry below.
Enquiry: Find the measured Kd: item CO[C@@H]1O[C@H](CO)[C@@H](O[C@@H]2O[C@H](CO)[C@H](O)[C@H](NC(=S)Nc3ccccc3)[C@H]2O)[C@H](O)[C@H]1NC(C)=O , target or system Galectin-9 (Homo sapiens, UniProt O00182).
Return: 100

* * *

// values below are pKd; system is Galectin-3 (Homo sapiens, UniProt P17931)
Sequence (P17931 whole entry): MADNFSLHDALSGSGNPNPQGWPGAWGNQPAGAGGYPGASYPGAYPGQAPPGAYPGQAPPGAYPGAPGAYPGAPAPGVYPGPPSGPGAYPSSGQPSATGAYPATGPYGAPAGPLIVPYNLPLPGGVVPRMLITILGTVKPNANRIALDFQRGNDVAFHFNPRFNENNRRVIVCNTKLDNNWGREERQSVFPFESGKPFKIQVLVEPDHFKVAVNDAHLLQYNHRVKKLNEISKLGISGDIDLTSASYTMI
// pKd: -log10(molar conc.)

Enquiry: What value of measured pKd is listed for C=CCNC(=S)N[C@H]1[C@@H](O)[C@@H](CO)O[C@@H](O[C@H]2[C@H](O)[C@@H](NC(C)=O)[C@H](OC)O[C@@H]2CO)[C@@H]1O ?
Return: 4.28

Enquiry: Reported pKd, molecule CNC(=S)N[C@H]1[C@@H](O)[C@@H](CO)O[C@@H](O[C@H]2[C@H](O)[C@@H](NC(C)=O)[C@H](OC)O[C@@H]2CO)[C@@H]1O : ____
Return: 4.42

Enquiry: What measured pKd goes with CCCCNC(=S)N[C@H]1[C@@H](O)[C@@H](CO)O[C@@H](O[C@H]2[C@H](O)[C@@H](NC(C)=O)[C@H](OC)O[C@@H]2CO)[C@@H]1O ?
Return: 4.64

Enquiry: Please report the recorded pKd for CO[C@@H]1O[C@H](CO)[C@@H](O[C@@H]2O[C@H](CO)[C@H](O)[C@H](NC(=S)N[C@H]3[C@@H](O)[C@@H](CO)O[C@@H](O[C@H]4[C@H](O)[C@@H](NC(C)=O)[C@H](OC)O[C@@H]4CO)[C@@H]3O)[C@H]2O)[C@H](O)[C@H]1NC(C)=O .
Return: 3.80

Enquiry: Which pKd value belongs to CO[C@@H]1O[C@H](CO)[C@@H](O[C@@H]2O[C@H](CO)[C@H](O)[C@H](NC(=S)NCc3ccccc3)[C@H]2O)[C@H](O)[C@H]1NC(C)=O ?
Return: 4.82

Enquiry: Which value of pKd has been reported for CCN(CC)C(=S)N[C@H]1[C@@H](O)[C@@H](CO)O[C@@H](O[C@H]2[C@H](O)[C@@H](NC(C)=O)[C@H](OC)O[C@@H]2CO)[C@@H]1O in the records?
Return: 4.37

---
Enquiry: Which pKd is listed for CO[C@@H]1O[C@H](CO)[C@@H](O[C@@H]2O[C@H](CO)[C@H](O)[C@H](NC(=S)NC3CCCCC3)[C@H]2O)[C@H](O)[C@H]1NC(C)=O ?
Return: 4.24

Enquiry: Need pKd, item CO[C@@H]1O[C@H](CO)[C@@H](O[C@@H]2O[C@H](CO)[C@H](O)[C@H](NC(N)=S)[C@H]2O)[C@H](O)[C@H]1NC(C)=O
Return: 4.19
